B1: PLAGL1 (parent)
chain: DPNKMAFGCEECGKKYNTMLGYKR

variants of: B1; experiment: protein stability index of a GFP-peptide fusion (GPS, HEK-293T) (PSI 1-6); higher = more stable; details: c terminus: a fixed tail appended;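 further: lentivirally expressed fusions sorted by FACS into six bins by GFP to DsRed ratio, PSI derived from sequencing read proportions per bin multiplied by bin number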
Here the recorded protein stability index is given for each entry.
Measured metric: protein stability index

| Mutation descriptor | Experimental value |
| --- | --- |
| G8H | 2.5 |
| L20M | 2.72 |
| M5I | 2.38 |
| G13A | 2.33 |
| K23C | 2.21 |
| M5A | 2.63 |
| N17V | 1.78 |
| M19W | 2.11 |
| C12D | 4.49 |
| E10I | 2.51 |
| Y22M | 3.01 |
